- Tested on: biotinyl-Met-oxazolone
- test.protocol: self-aminoacylation, catalytic enhancement (BMO) (fold over background); higher = more active; k-Seq, kA / k0A0; sequences stand for … in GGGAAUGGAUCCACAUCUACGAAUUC…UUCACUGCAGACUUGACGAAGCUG
Variants at the floor of the assay were thinned out.
So basically: self-aminoacylation at 3 or higher? That is Condition met. Lower than 3? That is Condition not met.

AUUACCCUGGUAUUCGAGUGA [Fam2.1 aminoacylation ribozyme variant]: Condition met
AAGUUGGCUAAUAGUCGCAAC [Fam3.1 aminoacylation ribozyme variant]: Condition not met
CCACACUUCAAUUAAUCGGUC [Fam1B.1 aminoacylation ribozyme variant]: Condition not met
AUGCAACUAGGUCAUCGGGUG [Fam2.2 aminoacylation ribozyme variant]: Condition met
AUUCGUCUAGGUCAUCGGGUG [Fam2.2 aminoacylation ribozyme variant]: Condition met
AUUCACUUGGGUCAUCGGGUG [Fam2.2 aminoacylation ribozyme variant]: Condition met
AUUCACCUACGUCAUCCGGUG [Fam2.2 aminoacylation ribozyme variant]: Condition met
AUUACCCUGGUGAUCAAGUGA [Fam2.1 aminoacylation ribozyme variant]: Condition met

[ask] Determine whether measured self-aminoacylation meets or exceeds 3 for AACUUUGCUAAUAGUCCCAAG [Fam3.1 aminoacylation ribozyme variant]
[reply] Condition not met
